Reference for the values: patent US11465983B2

System Name: USP7 (Homo sapiens, UniProt Q93009)
Sequence (Q93009 208-560 limits assumed): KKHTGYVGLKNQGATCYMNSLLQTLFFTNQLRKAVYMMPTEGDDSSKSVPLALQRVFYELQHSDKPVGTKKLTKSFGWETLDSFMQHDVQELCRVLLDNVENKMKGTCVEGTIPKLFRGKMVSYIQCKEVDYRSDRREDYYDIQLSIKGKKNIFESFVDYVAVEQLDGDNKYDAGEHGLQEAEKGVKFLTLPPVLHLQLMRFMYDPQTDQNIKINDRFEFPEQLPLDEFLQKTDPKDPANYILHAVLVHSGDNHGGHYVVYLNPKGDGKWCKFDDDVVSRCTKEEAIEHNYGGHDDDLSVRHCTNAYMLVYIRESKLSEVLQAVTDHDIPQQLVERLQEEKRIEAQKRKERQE
pIC50: −log10 of the molar value.
Quantity Name: pIC50

CC(=O)Nc1ccc2c(=O)n(CC3(O)CCN(C(=O)CC(C)c4ccccc4)CC3)cnc2c1 (centres unmarked)	6.00 to 6.70
O=C(CC1c2ccccc2-c2ccccc21)N1CCC(O)(Cn2cnc3cc(Cl)ccc3c2=O)CC1	< 5.00
O=C(CCc1ccccn1)N1CCC(O)(Cn2cnc3cc(Cl)ccc3c2=O)CC1	< 5.00

Lab note: need pIC50 with USP7 (Homo sapiens, UniProt Q93009) for entry "C[C@@H](CC(=O)N1CCC(O)(Cn2cnc3cc(Cl)ccc3c2=O)CC1)c1ccccc1" , please look it up.
> 6.70

Lab note: need pIC50 with USP7 (Homo sapiens, UniProt Q93009) for entry "O=C(CCn1cccc1)N1CCC(O)(Cn2cnc3cc(Cl)ccc3c2=O)CC1" , please look it up.
< 5.00

Lab note: need pIC50 with USP7 (Homo sapiens, UniProt Q93009) for entry "O=C(NCCCn1cnc2cc(Cl)ccc2c1=O)c1ccc2c(Cl)c3c(nc2c1)CCCC3" , please look it up.
< 5.00

Lab note: need pIC50 with USP7 (Homo sapiens, UniProt Q93009) for entry "O=C(NCCCCC(=O)N1CCC(O)(Cn2cnc3cc(Cl)ccc3c2=O)CC1)c1ccc2c(Cl)c3c(nc2c1)CCCC3" , please look it up.
6.00 to 6.70

Lab note: need pIC50 with USP7 (Homo sapiens, UniProt Q93009) for entry "O=C(CCC1CCCCC1)N1CCC(O)(Cn2cnc3cc(Cl)ccc3c2=O)CC1" , please look it up.
< 5.00

Lab note: need pIC50 with USP7 (Homo sapiens, UniProt Q93009) for entry "CNC(=O)c1ccc2c(Cl)c3c(nc2c1)CCCC3" , please look it up.
< 5.00

Lab note: need pIC50 with USP7 (Homo sapiens, UniProt Q93009) for entry O=C(C1CC1c1ccccc1)N1CCC(O)(Cn2cnc3cc(Cl)ccc3c2=O)CC1 (centres unmarked) , please look it up.
5.00 to 6.00

Lab note: need pIC50 with USP7 (Homo sapiens, UniProt Q93009) for entry CC(C)C(Cc1ccccc1)C(=O)N1CCC(O)(Cn2cnc3cc(Cl)ccc3c2=O)CC1 (centres unmarked) , please look it up.
6.00 to 6.70
